# test_description: acute toxicity in mice (LD 50)
# test_context: mouse, in vivo, iv
measured_metric: LD50 (mg/kg)
Write the value in mg/kg as a bare number.

Suppose we examine the compound CCCCOc1ccccc1OCCN(C(C)C)C(C)C [Example 1] ; what LD50 value has been reported? 15

Now try CC(C)COc1ccccc1OCCN(C(C)C)C(C)C [Example 3] . 14

Now try CCN(CC)CCCOc1ccccc1OCC(C)C [Example 5] . 14

Now try CCN(CC)CCOc1ccccc1OCC(C)C [Example 4] . 18

Now try CCCCOc1ccccc1OCCN1CCCCC1 [Example 6] . 9

###

# test_description: acute toxicity in mice (LD 50)
# test_context: mouse, in vivo, sc
measured_metric: LD50 (mg/kg)
Write the value in mg/kg as a bare number.

Suppose we examine the compound CC(C)COc1ccccc1OCCN(C(C)C)C(C)C [Example 3] ; what LD50 value has been reported? 300

Now try CCCCOc1ccccc1OCCN(C(C)C)C(C)C [Example 1] . 250
